Measured values drawn from patent US4742172A for this set.

Experiment: in vivo
Details: mouse, po, peroral administration, mice
Measured Metric: LD50 (µmol/kg)
Give the value, in units of µmol/kg, as a plain number.

Prompt: Using known records, supply LD50 for CCCCN1CC2CN(CCCC)CC(C1)C2(C)C
Completion: 1040
